As shown below, each of these compounds has a reported Activity in the presence of inhibitors value.
# Tested on: GalNAc-T7
# test_method_notes: Inhibition of GalNAc-T7 activity with GalNAc2-3EA2 substrate
# Assay type: biochemical, human
# condition_set: inhibitors 5 mM; GalNAc2-3EA2 substrate; without inhibitor 6.8
// note: answer is a bare numeric in nmol/min/mL

line_notation | endpoint_result
OC[C@H]1O[C@H](OCc2ccccc2)[C@@H](O)[C@@H](O)[C@@H]1O | 6.7
CC(=O)N[C@H]1[C@@H](OCc2ccccc2)O[C@H](CO)[C@H](O)[C@@H]1O | 5.4
CC(=O)N[C@H]1[C@@H](OCc2ccccc2)O[C@H](CO)[C@H](O)[C@@H]1O[C@@H]1O[C@H](CO)[C@H](O)[C@H](O)[C@H]1O | 4.5

Supply recorded Activity in the presence of inhibitors for `OC[C@H]1O[C@@H](OCc2ccccc2)[C@H](O)[C@@H](O)[C@H]1O` here.
4.7
